- Tested on: Setaria viridis
- assay_remarks: Post-emergence herbicidal effect
- Format: in vivo
- conditions: 80 g a.i./ha, assessed visually after about 3 weeks
property_name: Herbicidal effect against [%] SETVI (%)
Express your answer in %, writing the number without its unit.

Query: Fill blank: measured Herbicidal effect against [%] SETVI of the compound CC#Cc1cc(CC)c(C2=C(OC(=O)OCC)C3(CCCC(OCC)C3)NC2=O)c(CC)c1 (single isomer, unassigned) is ____.
Result: 100

Query: Fill blank: measured Herbicidal effect against [%] SETVI of the compound CC#Cc1cc(C)c(C2=C(O)C3(CCCC(OCCC)C3)NC2=O)c(C)c1 (stereo not drawn) is ____.
Result: 100

Query: Fill blank: measured Herbicidal effect against [%] SETVI of the compound CC#Cc1cc(C)c(C2=C(O)C3(CCCC(OCC)C3)NC2=O)c(C)c1 (stereo not drawn) [Example D2] is ____.
Result: 90

Query: Fill blank: measured Herbicidal effect against [%] SETVI of the compound CC#Cc1cc(C)c(C2=C(OC(=O)OC(C)C)C3(CCCC(OCCOC)C3)NC2=O)c(C)c1 (stereo not drawn) is ____.
Result: 100

Query: Fill blank: measured Herbicidal effect against [%] SETVI of the compound CC#Cc1ccc(C2=C(O)C3(CCCC(OCCOC)C3)NC2=O)c(CC)c1 (stereo not drawn) is ____.
Result: 100

Query: Fill blank: measured Herbicidal effect against [%] SETVI of the compound CC#Cc1cc(C)c(C2=C(OC(=O)OC)C3(CCCC(OCCOC)C3)NC2=O)c(C)c1 (stereo not drawn) is ____.
Result: 100

###

Please go through the items and note down their Herbicidal effect against [%] AVEFA.
- Test system: Avena fatua
- assay_remarks: Pre-emergence herbicidal effect
- Format: in vivo
- conditions: 80 g a.i./ha, scored visually after 3 weeks
Express your answer in %, writing the number without its unit.

Query: Fill blank: measured Herbicidal effect against [%] AVEFA of the compound CC#Cc1cc(C)c(C2=C(O)C3(CCCC(OCCOC)C3)NC2=O)c(C)c1 (stereo not drawn) [Example D6] is ____.
Result: 100

Query: Fill blank: measured Herbicidal effect against [%] AVEFA of the compound CC#Cc1cc(CC)c(C2=C(OC(=O)C(C)C)C3(CCCC(OCCOC)C3)NC2=O)c(CC)c1 (stereo not drawn) [Example P12] is ____.
Result: 100

Query: Fill blank: measured Herbicidal effect against [%] AVEFA of the compound CC#Cc1cc(C)c(C2=C(OC(=O)OCC)C3(CCCC(OCC)C3)NC2=O)c(CC)c1 (stereo not drawn) [Example P1] is ____.
Result: 80

Query: Fill blank: measured Herbicidal effect against [%] AVEFA of the compound CC#Cc1cc(C)c(C2=C(OC(=O)OC)C3(CCCC(OCCOC)C3)NC2=O)c(C)c1 (stereo not drawn) [Example P16] is ____.
Result: 100

Query: Fill blank: measured Herbicidal effect against [%] AVEFA of the compound CC#Cc1cc(CC)c(C2=C(OC(=O)OCC)C3(CCCC(OCC)C3)NC2=O)c(CC)c1 (single isomer, unassigned) [Example P2] is ____.
Result: 100

Query: Fill blank: measured Herbicidal effect against [%] AVEFA of the compound CC#Cc1cc(C)c(C2=C(OC(=O)OC(C)C)C3(CCCC(OCCOC)C3)NC2=O)c(C)c1 (stereo not drawn) [Example P14] is ____.
Result: 100

Query: Fill blank: measured Herbicidal effect against [%] AVEFA of the compound CC#Cc1cc(CC)c(C2=C(O)C3(CCCC(OCCOC)C3)NC2=O)c(CC)c1 (stereo not drawn) [Example D5] is ____.
Result: 100

Query: Fill blank: measured Herbicidal effect against [%] AVEFA of the compound CC#Cc1cc(C)c(C2=C(OC(=O)OCC)C3(CCCC(OCCOC)C3)NC2=O)c(C)c1 (stereo not drawn) [Example P15] is ____.
Result: 100

Query: Fill blank: measured Herbicidal effect against [%] AVEFA of the compound CC#Cc1cc(CC)c(C2=C(O)C3(CCCC(OCC)C3)NC2=O)c(CC)c1 (stereo not drawn) [Example D1] is ____.
Result: 80

Query: Fill blank: measured Herbicidal effect against [%] AVEFA of the compound CC#Cc1cc(CC)c(C2=C(OC(=O)OCC)C3(CCCC(OCC)C3)NC2=O)c(CC)c1 (single isomer, unassigned) [Example P4] is ____.
Result: 100

Query: Fill blank: measured Herbicidal effect against [%] AVEFA of the compound CC#Cc1cc(C)c(C2=C(O)C3(CCCC(OCC)C3)NC2=O)c(C)c1 (stereo not drawn) [Example D2] is ____.
Result: 80

Query: Fill blank: measured Herbicidal effect against [%] AVEFA of the compound CC#Cc1cc(C)c(C2=C(O)C3(CCCC(OCCOC)C3)NC2=O)c(CC)c1 (stereo not drawn) [Example D8] is ____.
Result: 100

Query: Fill blank: measured Herbicidal effect against [%] AVEFA of the compound CC#Cc1cc(C)c(C2=C(OC(=O)OCC)C3(CCCC(OCCOC)C3)NC2=O)c(CC)c1 (stereo not drawn) [Example P13] is ____.
Result: 100

Query: Fill blank: measured Herbicidal effect against [%] AVEFA of the compound CC#Cc1cc(C)c(C2=C(O)C3(CCCC(OCCC)C3)NC2=O)c(C)c1 (stereo not drawn) [Example D3] is ____.
Result: 80

Query: Fill blank: measured Herbicidal effect against [%] AVEFA of the compound C#Cc1cc(CC)c(C2=C(O)C3(CCCC(OCCOC)C3)NC2=O)c(CC)c1 (stereo not drawn) [Example D10] is ____.
Result: 90

Ref: patent US11178868B2
